Tested on: HCT-116
Test: NCI tumour cell line growth inhibition, 48 h
Active and inactive are the calls of the source. Cut-off read from the data, not from the text of the source: active = GI50 up to about 1.1 µM and inactive = higher.
Permitted responses: Y for active, N for inactive

CC(C)(C)c1ccc2c(c1)S(=O)(=O)Nc1cccc(c1)NS(=O)(=O)c1cc(C(C)(C)C)ccc1OCCOCCO2 : N
CC1(C)CC(C2=NCCO2)CC(C)(C)N1 : N
C=C(C)C1CC=C(C)C(=O)C1 (stereo not given) [CARVONE] : N
CCOC(=O)c1c(SCc2ccccc2)nc2c3ccccc3ccn12 : N
CCC1(c2ccc(N)cc2)CCC(=O)NC1=O (stereo not given) [AMINOGLUTETHIMIDE] : N

Task: Status in this test for O=C(Nc1ccccc1)C(=O)C(C(=O)c1ccccc1F)C1OC(=O)c2ccccc21 (stereo not given) ?
Output: N

Task: Status in this test for CN(CCCNCc1ccccn1)Cc1ccccc1O ?
Output: N

Task: Status in this test for COc1ccc([C@H]2CC(=O)C[C@H](c3ccc(OC)cc3OC)C23C(=O)c2ccccc2C3=O)c(OC)c1 ?
Output: N

Task: Status in this test for c1ccc(-c2nnc(-c3ccccn3)c3c2C[C@@H]2C[C@@H]4Cc5c(-c6ccccn6)nnc(-c6ccccn6)c5[C@@H]4[C@H]32)nc1 ?
Output: N

Task: Status in this test for COc1ccc(-c2cc(-c3cc4cc(Br)ccc4nc3Cl)c(C#N)c(N)n2)cc1 ?
Output: N
